# Tested on: Plasmodium berghei
# assay explanation: Luciferase/luciferin-expressing antifolate-resistant parasites were used to infect a culture of HepG2 cells that were pre-incubated with compounds. Infected hepatocytes emit light due to the luciferase reaction. Assay results are presented as the percent inhibition of light emission compared to control. […]
# Format: functional
# assay context: sporozoite, HEPG2TOX_HILL_SLOPE 11.4, HEPG2TOX_R_SQUARED 0.576, read-out: LUCIFERASE INFECTION ASSAY - IC50
reported metric: IC50

Dear colleague, I am looking for the recorded IC50 of the following compound: COc1ccc(Nc2nc(S(=O)(=O)c3ccc(C)cc3)c(Cl)s2)cc1
> 10 µM

The values you see were collected from ChEMBL document CHEMBL4483862.
